# Tested on: SF-268
# assay.summary: NCI tumour cell line growth inhibition, 48 h
The source made the active and inactive calls. Rule as the data show it: active = GI50 up to about 1.1 µM and inactive = higher.
Classes used: 1 for active, -1 for inactive

1. COc1ccc(C2Oc3cc(OC)c(O)cc3[C@@H]2C)cc1 (stereo partly specified) :: -1
2. O=C(/C=C/c1ccc(Cl)cc1)c1cccs1 :: -1
3. N#Cc1c(C#N)c(SSc2c(C#N)c(C#N)c(N)n2-c2ccc(F)cc2)n(-c2ccc(F)cc2)c1N :: -1
4. COc1ccc(/C(Cl)=C(\CN(C)C)c2ccc(OC)c(OC)c2)cc1OC.[B] :: -1
5. O=P1(O)c2ccccc2Nc2cc(C(F)(F)F)ccc21 :: -1
6. Cn1c(=O)c2c(no[n+]2[O-])n(C)c1=O :: -1
7. Cc1ccc2c(c1C)CC1(Cc3c(ccc4c3CCC4)C1=O)C2=O (stereo unspecified) :: -1
8. Cn1c(=O)n(CC2CS2)c2ccccc21 (stereo unspecified) :: -1
9. COC(=O)C(Cc1nc2ccccc2nc1O)C(=O)C(=O)Nc1ccc(F)cc1 (stereo unspecified) :: -1
10. CCOC(=O)c1c(-c2ccccc2)c(-c2ccccc2)cn1C :: -1
11. COc1ccc(C2(CC(C)O)SCCCS2)cc1 (stereo unspecified) :: -1
12. O=C1CCC(=O)c2cc(Br)ccc2N1 :: -1
13. CCOC(=O)C(/C(=N\NC(=O)OC)C(=O)Nc1cc(OC)ccc1OC)c1cnc2ccccc2n1 (stereo unspecified) :: -1
14. CC(=O)OCCCC(NC(=O)OC(C)(C)C)C(=O)NC(CCCOC(C)=O)C(=O)NC(Cc1ccc([N+](=O)[O-])cc1)C(=O)NCC(=O)OCc1ccccc1 (stereo unspecified) :: -1
15. O=c1[nH]cnc2c1ncn2[C@H]1CO[C@@H](CO)[C@@H]1O :: -1
16. CC1=C(C(=O)NCc2ccccc2)C(c2ccccc2[N+](=O)[O-])C(C(=O)NCc2ccccc2)=C(C)N1 :: -1
17. Cc1cccc(C2NC(=O)c3ccccc3N2)c1 (stereo unspecified) :: -1
18. CCC1(O)CC(OC2CC(N(C)C)C(OC3CC(O)C(OC4OC(C)C(=O)C=C4N)C(C)O3)C(C)O2)c2c(cc3c(c2O)C(=O)c2c(O)cccc2C3=O)C1C(=O)OC (stereo unspecified) :: 1
19. CCOC(=O)Cc1csc2[n+]1C(=O)/C(=C\c1cccc(Cl)c1Cl)S2 :: -1
20. O=C(O)CCc1nc2cc3ccccc3cc2[nH]c1=O :: -1
21. O=C(NI1OC(=O)c2ccccc21)c1ccc(Cl)cc1 :: -1
22. O=C(Nc1ccccc1)N(C1=NCC(CI)S1)c1ccc(F)c(F)c1 (stereo unspecified) :: -1
23. C[N+]1(C)C/C(=C/c2ccc(F)cc2)C(=O)/C(=C\c2ccc(F)cc2)C1 :: -1
24. CCOC(=O)/C=C(\C(=O)OCC)n1ccc(=O)n(Cc2cn(CCCCOC(C)=O)nn2)c1=O :: -1
25. Cc1ccc(OCC2OC(C#N)C(Oc3ccc(C)cc3)C2Oc2ccc(C)cc2)cc1 (stereo unspecified) :: -1
26. CC(=O)Nc1cc(/C=C\C(=O)N2CC(CCl)c3c2cc(N)c2ccccc32)n(C)n1 (stereo unspecified) :: 1
27. N#Cc1ccc(OCc2nc3cc(C(F)(F)F)ccc3nc2-c2ccccc2)cc1 :: -1
28. CCOc1cc(NC(C)=O)ccc1C(=O)NNS(=O)(=O)c1ccc(NC(C)=O)cc1 :: -1
29. [N-]=[N+]=NC1(c2ccccc2)C(=O)c2cccc3c2N(CCC3)C1=O (stereo unspecified) :: -1
30. CC(C)(C)c1ccc2c(c1)S(=O)(=O)Nc1cccc(c1)NS(=O)(=O)c1cc(C(C)(C)C)ccc1OCCOCCO2 :: -1
31. O=c1[nH]n(Cc2ccccc2)c2ccc([N+](=O)[O-])cc12 :: -1

---

# Test system: SK-MEL-28
# assay.summary: NCI tumour cell line growth inhibition, 48 h
Activity calls are given as the source filed them. Cut-off read from the data, not from the text of the source: active = GI50 up to about 1.1 µM and inactive = higher.
Classes used: yes for active, no for inactive

1. O=C(c1ccccc1)[C@H]1Nc2cnccc2C2c3ccccc3CC21 (stereo partly drawn) :: no
2. N#CCCN(c1ccc(/C=C2\N=C(Cc3ccccc3)OC2=O)cc1)S(=O)(=O)c1ccccc1 :: no
3. CCOC(=O)NC(C(F)(F)F)(C(F)(F)F)P(=O)(OC(C)C)OC(C)C :: no
4. CC(C)(C)OC(=O)NC1CCCC1C(O)(C1=CCCC1)C1=CCCC1 (stereo not drawn) :: no
5. CN(C)CCNC(=O)c1cccc2c(NC(CCCNC(=N)N)C(=O)O)c3ccccc3[n+](C)c12 (stereo not drawn) :: no
6. CCCCC(C(=O)N/N=C/c1ccc([N+](=O)[O-])o1)C(=O)N/N=C/c1ccc([N+](=O)[O-])o1 :: no
7. O=Cc1cn(C(=O)c2ccccc2)c2ccccc12 :: no
8. CN(C)CCC(/C=C/c1ccccc1)=N\Nc1c(F)c(F)c(F)c(F)c1F :: no
9. CC(=O)NC(CCCCN(Cc1ccccc1)C(=O)N(CCCl)N=O)C(=O)NCc1ccccc1 (stereo not drawn) :: no
10. C1CSCC2(COC2)CS1 :: no
11. C#CCn1c(=O)ccn(/C(=C/C(=O)OCC)C(=O)OCC)c1=O :: no
12. COc1ccc(-n2/c(=N/C(=S)N(C)C)ss/c2=N\C(=S)N(C)C)cc1 :: no
13. CN(C)CCCOC(=O)C(O)(Cc1ccccc1)C1CC1 (stereo not drawn) :: no
14. O=C(/C=C/c1ccccc1O)C(c1ccccc1)c1ccccc1 :: no
15. N#CC(NNC(=O)c1ccccc1O)c1ccccc1O (stereo not drawn) :: no
16. CCn1cc(C(=O)O)c(=O)c2cc(F)c(N3CCN(CN4C(=O)/C(=N\c5ncc(Cc6cc(OC)c(OC)c(OC)c6)c(N)n5)c5cc(Cl)ccc54)CC3)cc21 :: no
17. N#Cc1ccc(OCc2nc3cc(C(F)(F)F)ccc3nc2-c2ccccc2)cc1 :: no
18. CCOC(=O)c1c(SCc2ccccc2)nc2c3ccccc3ccn12 :: no
19. Nc1ccc(-c2cssc2=S)cc1 :: no
20. CCC1(c2ccc(N)cc2)CCC(=O)NC1=O (stereo not drawn) [AMINOGLUTETHIMIDE] :: no
21. C=C(Cl)COC(=O)Nc1cccc(Cl)c1 :: no
22. CC1=C(C(=O)NCc2ccccc2)C(c2ccccc2[N+](=O)[O-])C(C(=O)NCc2ccccc2)=C(C)N1 :: no
23. CN(CCCNCc1ccccn1)Cc1ccccc1O :: no
24. Cc1cccc(NC(=O)/C=C/c2ccccc2)c1C :: no
25. O=C1CCC(=O)c2cc(Br)ccc2N1 :: no
26. c1ccc(/C(=N\Nc2nc3ccccc3[nH]2)c2ccccn2)cc1 :: no
27. C[N+]1(C)C/C(=C/c2ccc(F)cc2)C(=O)/C(=C\c2ccc(F)cc2)C1 :: no
28. CC(=O)NC1C(OCc2ccccc2)OC(CO)C(O)C1OCC(=O)NC(C)C(=O)NC(CCC(=O)NCCCCCNc1c2ccccc2nc2cccc([N+](=O)[O-])c12)C(N)=O (stereo not drawn) :: yes
29. CC(C(=O)O)c1ccc(-n2nnc3c(=O)[nH][nH]c(=O)c32)cc1 (stereo not drawn) :: no
30. Cc1ccccc1-n1c(=O)c2ncn(CCCl)c2n(-c2ccccc2C)c1=S :: no
31. N#CCCN(CCCN(C(=O)Nc1ccccc1)c1ccccc1)C(=O)Nc1ccccc1 :: no
32. COC(=O)c1ccc(C)cc1C1CN=NC12Cc1c(C)cccc1C2=O (stereo not drawn) :: no
33. C=C1C(O)CC[C@]2(C)C1C1OC(C)(C)O[C@]13CC(=O)C(C)=C([C@H]1OC(C)(C)OC12)C3(C)C (stereo partly drawn) :: no
34. Ic1ncnc2c1ncn2C1CCCO1 (stereo not drawn) :: no
35. CN1C(c2ccccc2)CC(C)(O)CC1c1ccccc1 (stereo not drawn) :: no
36. N#Cc1c(C#N)c(SSc2c(C#N)c(C#N)c(N)n2-c2ccc(F)cc2)n(-c2ccc(F)cc2)c1N :: no
37. c1ccc(C2=Nn3c(CCCCCCCCc4nnc5n4N=C(c4ccccc4)CS5)nnc3SC2)cc1 :: no
38. CN(CC(=O)N1CC(CCl)c2ccc([N+](=O)[O-])cc21)CC(=O)N1CC(CCl)c2ccc([N+](=O)[O-])cc21 (stereo not drawn) :: no

---

# System: DU-145
# assay.summary: NCI tumour cell line growth inhibition, 48 h
Calls of active or inactive are those of the source. Rule as the data show it: active = GI50 up to about 1.1 µM and inactive = higher.
Classes used: active, inactive

1) CN(C)CCOc1ccc(I)cc1Cc1ccccc1 :: inactive
2) Cc1ccc(OCC2OC(C#N)C(Oc3ccc(C)cc3)C2Oc2ccc(C)cc2)cc1 (stereo not drawn) :: inactive
3) Cc1c(CNc2ccc(Cl)c(C(=O)NC(CC(=O)O)C(=O)O)c2)ccc2nc(N)nc(N)c12 (stereo not drawn) :: active
4) CN1Cc2cc(O)c(O)cc2C(O)C1 (stereo not drawn) :: inactive
5) CN(C(=O)c1ccc(Cl)s1)C(=S)N(C)C(=O)c1ccc(Cl)s1 :: inactive
6) CC1(C)CC(C2=NCCO2)CC(C)(C)N1 :: inactive
7) COc1cccc(CCn2c(N)c(-c3ccccc3)c3ccc([N+](=O)[O-])cc3c2=O)c1 :: inactive
8) CCOc1cc(NC(C)=O)ccc1C(=O)NNS(=O)(=O)c1ccc(NC(C)=O)cc1 :: inactive
9) O=C(O)C1C2OC(C(Br)C2Br)C1C(=O)O (stereo not drawn) :: inactive
10) c1ccc(C2=Nn3c(CCCCCCCCc4nnc5n4N=C(c4ccccc4)CS5)nnc3SC2)cc1 :: inactive
11) Clc1cc(Br)c2c3c(c(Br)cc(Cl)c13)C(Br)=C2Br :: inactive
12) CC1=C(\C=C/C(C)=C/C=C/C(C)=C/C=C/C=C(C)\C=C\C=C(C)/C=C/C2=C(C)CCCC2(C)C)C(C)(C)CCC1 :: inactive
13) CC(C)OC(=O)c1cc(NC(=S)OC(C)C)ccc1Cl :: inactive
